Taken from ChEMBL document CHEMBL6114998.

# tested on: Ectonucleotide pyrophosphatase/phosphodiesterase family member 1 (Homo sapiens)
# Sequence (P22413 whole entry): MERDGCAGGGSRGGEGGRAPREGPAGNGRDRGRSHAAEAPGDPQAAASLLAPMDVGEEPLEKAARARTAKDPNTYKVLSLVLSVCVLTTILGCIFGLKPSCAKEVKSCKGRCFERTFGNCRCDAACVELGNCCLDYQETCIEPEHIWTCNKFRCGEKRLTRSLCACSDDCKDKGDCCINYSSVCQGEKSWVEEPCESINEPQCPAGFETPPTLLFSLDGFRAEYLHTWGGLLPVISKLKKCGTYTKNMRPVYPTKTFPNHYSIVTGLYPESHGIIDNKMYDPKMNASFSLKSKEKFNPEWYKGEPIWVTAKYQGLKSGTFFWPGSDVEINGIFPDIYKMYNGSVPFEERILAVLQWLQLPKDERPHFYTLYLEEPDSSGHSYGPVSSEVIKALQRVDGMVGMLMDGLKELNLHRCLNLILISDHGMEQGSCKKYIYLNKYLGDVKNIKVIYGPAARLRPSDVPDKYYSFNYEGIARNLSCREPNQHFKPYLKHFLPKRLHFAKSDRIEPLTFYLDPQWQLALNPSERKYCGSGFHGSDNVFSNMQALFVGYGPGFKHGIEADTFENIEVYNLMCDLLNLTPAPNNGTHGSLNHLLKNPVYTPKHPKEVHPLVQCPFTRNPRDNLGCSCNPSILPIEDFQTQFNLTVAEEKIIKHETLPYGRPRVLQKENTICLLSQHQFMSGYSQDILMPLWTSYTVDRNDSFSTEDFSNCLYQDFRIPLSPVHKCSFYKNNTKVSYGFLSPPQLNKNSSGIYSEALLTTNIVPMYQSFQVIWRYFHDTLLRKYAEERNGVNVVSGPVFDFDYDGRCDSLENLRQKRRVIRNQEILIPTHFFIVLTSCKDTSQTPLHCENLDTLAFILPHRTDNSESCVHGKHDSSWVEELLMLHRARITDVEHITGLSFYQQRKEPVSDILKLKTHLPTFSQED
metric: Ki

I have this compound here, `COc1cccc2c(N3CCC(CCP(=O)(O)O)CC3)ncnc12` , and I need its recorded Ki.
< 2 nM

---

# assay summary: Apparent permeability across basal to apical side in human Caco-2 cells at 10 uM by LC-MS/MS analysis
# Type: ADME, cell-based
metric: Papp B→A at 10 µM

I have this compound here, `COc1cccc2c(N3CCC(O)(CNS(N)(=O)=O)CC3)ncnc12` , and I need its recorded Papp B→A at 10 µM.
2.13 ×10⁻⁶ cm/s

I have this compound here, `Cn1nc(Cc2ccc(NS(N)(=O)=O)cc2)c2ccccc2c1=O` , and I need its recorded Papp B→A at 10 µM.
23.2 ×10⁻⁶ cm/s

I have this compound here, `COc1cccc2c(N3CCC(CCP(=O)(O)O)CC3)ncnc12` , and I need its recorded Papp B→A at 10 µM.
0.394 ×10⁻⁶ cm/s

---

# assay summary: Clearance in Sprague-Dawley rat at 10 mg/kg, iv measured upto 24 hrs by LC-MS/MS analysis
# Format: ADME, organism-based
# reported conditions: in vivo
Field: clearance. Provide a value for each of the compounds that follow.
Entry rule: numbers only, all in mL/min/kg.

I have this compound here, `COc1cccc2c(N3CCC(O)(CNS(N)(=O)=O)CC3)ncnc12` , and I need its recorded clearance.
84.5

I have this compound here, `COc1cccc2c(N3CCC(CCP(=O)(O)O)CC3)ncnc12` , and I need its recorded clearance.
94

I have this compound here, `Cn1nc(Cc2ccc(NS(N)(=O)=O)cc2)c2ccccc2c1=O` , and I need its recorded clearance.
6.18

---

# assay summary: Half life in Sprague-Dawley rat at 10 mg/kg, iv measured upto 24 hrs by LC-MS/MS analysis
# Format: ADME, organism-based
# reported conditions: in vivo
Field: half-life. Provide a value for each of the molecules that follow.
Entry rule: numbers only, all in min.

I have this molecule here, `COc1cccc2c(N3CCC(CCP(=O)(O)O)CC3)ncnc12` , and I need its recorded half-life.
52.7

I have this molecule here, `COc1cccc2c(N3CCC(O)(CNS(N)(=O)=O)CC3)ncnc12` , and I need its recorded half-life.
46.7

I have this molecule here, `Cn1nc(Cc2ccc(NS(N)(=O)=O)cc2)c2ccccc2c1=O` , and I need its recorded half-life.
194

---

# tested on: UniProt:Q12809
# Sequence (Q12809 whole entry): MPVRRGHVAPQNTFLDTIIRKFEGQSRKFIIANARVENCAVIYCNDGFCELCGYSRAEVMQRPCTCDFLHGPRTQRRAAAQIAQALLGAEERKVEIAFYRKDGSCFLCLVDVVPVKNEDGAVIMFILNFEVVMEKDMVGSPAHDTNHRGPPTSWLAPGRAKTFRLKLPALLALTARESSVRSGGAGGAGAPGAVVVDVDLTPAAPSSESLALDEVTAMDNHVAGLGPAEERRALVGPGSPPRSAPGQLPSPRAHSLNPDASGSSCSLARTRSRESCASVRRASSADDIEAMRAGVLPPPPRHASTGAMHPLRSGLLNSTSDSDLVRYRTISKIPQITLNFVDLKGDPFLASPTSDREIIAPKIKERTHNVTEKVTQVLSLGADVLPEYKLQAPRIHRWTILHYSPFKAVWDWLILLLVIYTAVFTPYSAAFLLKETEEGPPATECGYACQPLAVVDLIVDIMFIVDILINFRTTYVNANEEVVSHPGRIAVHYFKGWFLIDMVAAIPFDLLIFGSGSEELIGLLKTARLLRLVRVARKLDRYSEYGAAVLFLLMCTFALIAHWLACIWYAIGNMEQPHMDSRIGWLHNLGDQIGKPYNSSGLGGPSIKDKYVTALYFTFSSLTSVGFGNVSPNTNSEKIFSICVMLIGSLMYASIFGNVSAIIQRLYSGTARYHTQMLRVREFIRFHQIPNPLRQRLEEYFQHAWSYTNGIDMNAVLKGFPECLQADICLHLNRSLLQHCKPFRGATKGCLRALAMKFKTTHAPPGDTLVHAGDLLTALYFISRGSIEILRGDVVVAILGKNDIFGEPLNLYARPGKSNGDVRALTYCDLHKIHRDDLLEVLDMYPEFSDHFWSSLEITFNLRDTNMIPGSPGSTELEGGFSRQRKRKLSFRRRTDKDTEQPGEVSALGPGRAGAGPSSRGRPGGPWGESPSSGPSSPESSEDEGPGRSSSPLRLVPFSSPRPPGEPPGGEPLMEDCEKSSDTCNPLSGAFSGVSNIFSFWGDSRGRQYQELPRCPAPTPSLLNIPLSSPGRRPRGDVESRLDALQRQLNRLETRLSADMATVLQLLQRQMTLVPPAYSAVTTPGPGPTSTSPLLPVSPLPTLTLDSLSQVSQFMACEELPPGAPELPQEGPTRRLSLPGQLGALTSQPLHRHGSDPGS
# assay summary: Inhibition of hERG expressed in CHO cells by QPatch automated patch-clamp assay
pIC50: −log10 of the molar value.
Field: pIC50. Provide a value for each of the compounds that follow.

# query: pIC50 | item `COc1cccc2c(N3CCC(O)(CNS(N)(=O)=O)CC3)ncnc12` | system: UniProt:Q12809
< 4.40

# query: pIC50 | item `COc1cccc2c(N3CCC(C)(CNS(N)(=O)=O)CC3)c(C#N)cnc12` | system: UniProt:Q12809
< 4.40

# query: pIC50 | item `COc1cccc2c(N3CCC(C#N)(CNS(N)(=O)=O)CC3)c(C#N)cnc12` | system: UniProt:Q12809
< 4.40

---

# tested on: Ectonucleotide pyrophosphatase/phosphodiesterase family member 1 (Homo sapiens, UniProt P22413)
# assay summary: Inhibition of ENPP1 in human MDA-MB-231 cells using p-NPh-5TMP as substrate at pH 9.5 measured after 60 mins
# Type: cell-based
metric: IC50 (nM)
Entry rule: numbers only, all in nM.

I have this compound here, `COc1cccc2c(N3CCC(C#N)(CNS(N)(=O)=O)CC3)c(C#N)cnc12` , and I need its recorded IC50.
0.97

I have this compound here, COc1cccc2c(N3CCC4(CC(NS(N)(=O)=O)C4)C3)c(C#N)cnc12 (stereo not drawn) , and I need its recorded IC50.
6.78

I have this compound here, `COc1cccc2c(N3CCC(O)(CNS(N)(=O)=O)CC3)c(C#N)cnc12` , and I need its recorded IC50.
1.84

I have this compound here, `COc1cccc2c(N3CCC(F)(CNS(N)(=O)=O)CC3)ncnc12` , and I need its recorded IC50.
2.88

I have this compound here, COc1cccc2c(N3CC4CC3CC4CNS(N)(=O)=O)c(C#N)cnc12 (stereo not drawn) , and I need its recorded IC50.
23.2

I have this compound here, `COc1cccc2c(N3CCC(F)(CNS(N)(=O)=O)CC3)c(C#N)cnc12` , and I need its recorded IC50.
1.23

I have this compound here, `COc1cccc2c(N3CCC(C)(CNS(N)(=O)=O)CC3)ncnc12` , and I need its recorded IC50.
4.41

---

# tested on: Ectonucleotide pyrophosphatase/phosphodiesterase family member 1 (Homo sapiens)
# assay summary: Inhibition of ENPP1 in human MDA-MB-231 cells using p-NPh-5TMP as substrate at pH 8.5 measured after 60 mins
# Format: cell-based
metric: pIC50
// field semantics: pIC50 = negative decimal log of concentration (mol/L)

I have this molecule here, `COc1cccc2c(N3CCC(O)(CNS(N)(=O)=O)CC3)ncnc12` , and I need its recorded pIC50.
7.38

I have this molecule here, `Cn1nc(Cc2ccc(NS(N)(=O)=O)cc2)c2ccccc2c1=O` , and I need its recorded pIC50.
5.34

I have this molecule here, `COc1cccc2c(N3CCC(CCP(=O)(O)O)CC3)ncnc12` , and I need its recorded pIC50.
7.82

---

# tested on: Ectonucleotide pyrophosphatase/phosphodiesterase family member 1 (Homo sapiens)
# assay summary: Inhibition of ENPP1 in human MDA-MB-231 cells using p-NPh-5TMP as substrate at pH 9.5 measured after 60 mins
# Type: cell-based
metric: pIC50
// field semantics: pIC50 = negative decimal log of concentration (mol/L)

I have this compound here, COc1cccc2c(N3CCC4(CC(NS(N)(=O)=O)C4)C3)ncnc12 (stereo not given) , and I need its recorded pIC50.
8.30

I have this compound here, `COc1cccc2c(N[C@H]3CC[C@@H](NS(N)(=O)=O)CC3)ncnc12` , and I need its recorded pIC50.
7.38

I have this compound here, `COc1cccc2c(N3CCC(O)(CNS(N)(=O)=O)CC3)ncnc12` , and I need its recorded pIC50.
8.82

I have this compound here, `COc1cccc2c(NC34CC(NS(N)(=O)=O)(C3)C4)c(C#N)cnc12` , and I need its recorded pIC50.
7.99

I have this compound here, COc1cccc2c(N3CCC4(CC3)CC4NS(N)(=O)=O)c(C#N)cnc12 (stereo not given) , and I need its recorded pIC50.
8.21

I have this compound here, `COc1cccc2c(N[C@H]3CC[C@@H](NS(N)(=O)=O)CC3)c(C#N)cnc12` , and I need its recorded pIC50.
7.97

I have this compound here, COc1cccc2c(NC3CCC(NS(N)(=O)=O)CC3)c(C#N)cnc12 (stereo not given) , and I need its recorded pIC50.
8.06

---

# assay summary: AUC(0 to t) in Sprague-Dawley rat at 10 mg/kg, iv measured upto 24 hrs by LC-MS/MS analysis
# Format: ADME, organism-based
# reported conditions: in vivo
Field: AUC(0-t) at 24 h. Provide a value for each of the compounds that follow.
Entry rule: numbers only, all in ng·h/mL.

I have this compound here, `COc1cccc2c(N3CCC(CCP(=O)(O)O)CC3)ncnc12` , and I need its recorded AUC(0-t) at 24 h.
1780

I have this compound here, `Cn1nc(Cc2ccc(NS(N)(=O)=O)cc2)c2ccccc2c1=O` , and I need its recorded AUC(0-t) at 24 h.
27900

I have this compound here, `COc1cccc2c(N3CCC(O)(CNS(N)(=O)=O)CC3)ncnc12` , and I need its recorded AUC(0-t) at 24 h.
2030
